Molecular target: T. k. RNAP (Thermococcus kodakarensis RNA polymerase) (Thermococcus kodakarensis, UniProt Q5JE32+Q5JE33+Q5JE34)
Construct: assembled on synthetic RNA:DNA scaffold (EC+10); with DNA-directed RNA polymerase subunit Rpo3; DNA-directed RNA polymerase subunit Rpo4; DNA-directed RNA polymerase subunit Rpo5; DNA-directed RNA polymerase subunit Rpo6; DNA-directed RNA polymerase subunit Rpo7; DNA-directed RNA polymerase subunit Rpo10; DNA-directed RNA polymerase subunit Rpo11; DNA-directed RNA polymerase subunit Rpo12
Test: chemical quench-flow single-nucleotide addition, global fit (MENOTR)
Details: 25 °C, pH 8.39, Mg2+, heparin trap; elongation complex EC+10 on RNA:DNA scaffold; kinetic-model Kd with k1 fixed at 1 × 10^8 M^-1 s^-1; active site
measurement name: Kd
# number then unit; no other words

Asked: Please look at this molecule and report its Kd: Nc1ncnc2c1ncn2[C@@H]1O[C@H](COP(=O)(O)OP(=O)(O)OP(=O)(O)O)[C@@H](O)[C@H]1O
Given back: 2980 nM

Values from paper PMC12570502
